tested on: INS-1E cells; experiment: Cell viability by resazurin reduction; type: cell-based, Rat; conditions: freshly dissolved peptide up to 50 μM, 24 h, at least five assays
Bridge positions count the residues as written; N and C are the ends. Ends that are not written are not given here.
Observable: Cytotoxicity compared with unmodified IAPP, in words

{"Substance": "V17A: full-length IAPP with Val17 substituted by Ala (KCNTATCATQRLANFLAHSSNNFGAILSSTNVGSNTY; disulfide 2-7; ends not checked; UniProt P10997 34-70, looked up, variant V17A)", "Tested target": "INS-1E cells", "Result": "reduced IAPP toxicity"}
{"Substance": "L12A: full-length IAPP with Leu→Ala substitution at position 12 (KCNTATCATQRAANFLVHSSNNFGAILSSTNVGSNTY; disulfide 2-7; ends not checked; UniProt P10997 34-70, looked up, variant L12A)", "Tested target": "INS-1E cells", "Result": "reduced IAPP toxicity"}
{"Substance": "F15A: full-length IAPP with Phe15 replaced by alanine (KCNTATCATQRLANALVHSSNNFGAILSSTNVGSNTY; disulfide 2-7; ends not checked; UniProt P10997 34-70, looked up, variant F15A)", "Tested target": "INS-1E cells", "Result": "reduced IAPP toxicity"}
